Data origin, for the record: patent US20240000957A1

molecular target: T1, Human EphA2 (Human, UniProt P29317 24-537, limits assumed, biotinylated, 0.95 mol biotin/monomer); assay: SPR, biotinylated EphA2 on streptavidin chip
T1 construct: also called Eph receptor tyrosine kinase A2
T1 sequence (P29317 24-537 limits assumed): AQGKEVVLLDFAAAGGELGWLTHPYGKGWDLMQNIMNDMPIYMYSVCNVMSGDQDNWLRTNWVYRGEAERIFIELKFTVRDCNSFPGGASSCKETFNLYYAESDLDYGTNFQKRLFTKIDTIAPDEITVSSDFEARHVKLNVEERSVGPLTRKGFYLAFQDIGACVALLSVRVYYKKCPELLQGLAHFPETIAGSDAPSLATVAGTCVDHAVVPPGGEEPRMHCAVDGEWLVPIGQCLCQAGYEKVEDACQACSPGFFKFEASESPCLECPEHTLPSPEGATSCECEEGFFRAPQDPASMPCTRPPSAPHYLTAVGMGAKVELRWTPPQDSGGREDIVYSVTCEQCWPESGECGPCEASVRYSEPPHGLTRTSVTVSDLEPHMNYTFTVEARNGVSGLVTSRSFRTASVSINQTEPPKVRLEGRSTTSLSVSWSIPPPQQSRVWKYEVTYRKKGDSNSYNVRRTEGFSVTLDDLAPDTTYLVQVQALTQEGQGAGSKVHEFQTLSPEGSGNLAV
Listed binders paired with reported Kd
// return numeric value only (unit: nM, not printed)

Solved entries (count: 3):
Endpoint output: Kd of AXDCPLVNPLCLHPGWTC (not fully specified; N-terminal (β-Ala)-Sar10 spacer precedes SEQ ID NO: 11; HArg (homoarginine) at residue 2 of SEQ ID NO: 11; three Cys cyclised on the TATA scaffold; TrpCit-MMAE (MMAE-PABC-Cit-Trp-glutarate) on the N-terminal amine) [BCY6034] . Value?
1.64

Recorded Kd of AXDCPLVNPLCLHPGWTC (not fully specified; N-terminal (β-Ala)-Sar10 spacer precedes SEQ ID NO: 11; HArg (homoarginine) at residue 2 of SEQ ID NO: 11; three Cys cyclised on the TATA scaffold; DM1-SS- (DM1-SPDB) on the N-terminal amine) [BCY6031] , please.
1.99

I am curious: what Kd value has been reported for AXDCPLVNPLCLHPGWTC (not fully specified; N-terminal (β-Ala)-Sar10 spacer precedes SEQ ID NO: 11; HArg (homoarginine) at residue 2 of SEQ ID NO: 11; three Cys cyclised on the TATA scaffold; DM1-SS(SO3H)- (DM1-SO3H-SPDB) on the N-terminal amine) [BCY6082] ?
2.42

New cases:
// query Kd value for entry AXDCPLVNPLCLHPGWTC (not fully specified; N-terminal (β-Ala)-Sar10 spacer precedes SEQ ID NO: 11; HArg (homoarginine) at residue 2 of SEQ ID NO: 11; three Cys cyclised on the TATA scaffold; DM1-SS-(Me)- (DM1-SPP) on the N-terminal amine) [BCY6032]
2.1

Any idea what its Kd is? The binder is AXDCPLVNPLCLHPGWTC (not fully specified; N-terminal (β-Ala)-Sar10 spacer precedes SEQ ID NO: 11; HArg (homoarginine) at residue 2 of SEQ ID NO: 11; three Cys cyclised on the TATA scaffold; ValCit-MMAE (MMAE-PABC-Cit-Val-glutarate) on the N-terminal amine) [BCY6033]
3.41
